Data origin: the supplement of paper PMC9112550

Test system: Escherichia coli TOP10;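 note: peptides expressed intracellularly from a pBAD plasmid library in pooled LB shake-flask culture, induced with 0.3% L-arabinose, DNA abundance read by NGS, three biological replicates, DESeq2 with apeglm shrinkage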
protocolDetails: shrunken log2 fold change of peptide-encoding DNA abundance (4.5 h post-induction vs induction); higher = less antimicrobial activity (less host growth inhibition)
testParameters: time post-induction: 4.5 h; library: site-saturation at positions 5, 18, 19, 20
Entries and their measured shrunken log2 fold change follow.
quantityMeasured: shrunken log2 fold change

| sequenceEntry | valueReported |
| --- | --- |
| RRIRPRPPRLPRPRPRPWEMPRP | -0.157 |
| RRIRARPPRLPRPRPRPLRVPRP | 3.15 |
| RRIRGRPPRLPRPRPRPSLLPRP | 0.547 |
| RRIRNRPPRLPRPRPRPCPVPRP | -0.438 |
| RRIRRRPPRLPRPRPRPHFEPRP | -0.211 |
